Would you kindly list composite z-score for each of these molecules?
Assay: binders of probe aFSTL3 on microarray, primary screen, stem cell growth factor project, biochemical, small-molecule microarray, fluorescence 635/667 (AID 1064);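 also: measures binding of the biotinylated anti-FSTL3 antibody to printed compounds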
Conditions: higher = more signal
Give the figure by itself; no unit, no explanation.

Per the record, CC(C)C[C@@H]1NC(=O)[C@H]2C[C@@H](C(=O)NCCCCCCN(C)C)[C@@H](c3ccc(O)cc3)N2C1=O has composite z-score of -0.0795

Per the record, COC(=O)[C@@]1(Cc2ccccc2)[C@H]2c3cc(C(=O)N(C)C)n(CCSCCO)c3C[C@H]2CN1C(=O)c1ccccc1 has composite z-score of -0.303

Per the record, CCCCN1CC=CC23O[C@@H]4C=CCOC(=O)[C@@H]4[C@H]2C(=O)N(CCCCCO)[C@@H]3C1=O (stereo partly drawn) has composite z-score of 0.219

Per the record, O=C1OCCC/C=C\[C@H]2OC34C=CCN(c5ccc6ccccc6c5)C(=O)[C@H]3N(CCCCCCO)C(=O)[C@@H]4C12 (stereo partly drawn) has composite z-score of 0.221

Per the record, COC(=O)[C@@]1(Cc2ccc(F)cc2)[C@H]2c3cc(C(=O)N4CCCC4)n(Cc4cc(C)n(C)n4)c3C[C@H]2CN1C(=O)c1ccccc1 has composite z-score of 1.08

Per the record, CC[C@@H]1C=C(C(=O)O)[C@H](c2ccco2)N1S(=O)(=O)c1ccc(C)cc1 has composite z-score of 0.001

Per the record, CN1C(=O)C2C=CC(C(O)Cc3ccccc3)N(Nc3ccccc3)C2C1=O (stereo not drawn) has composite z-score of 0.0217

Per the record, COCCCNC(=O)[C@@]1(Cc2ccccc2)N=C(c2ccc(OCCCO)cc2)O[C@H]1c1ccccc1 has composite z-score of 0.743

----------
Assay: binders of probe aFGF10 on microarray, primary screen, stem cell growth factor project, biochemical, small-molecule microarray, fluorescence 635/667 (AID 1071);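 also: score merges 667 nm spot intensity and signal to noise from triplicate slides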
Conditions: higher = more signal
measurement type: composite z-score
Give the figure by itself; no unit, no explanation.

Per the record, CCN(CC)c1ccc(N2CC=CC34O[C@@H]5/C=C\CCC(C)OC(=O)C5[C@H]3C(=O)N(C(CO)C(C)C)[C@@H]4C2=O)cc1 (some centres not stated) has composite z-score of -0.551

Per the record, CCOC(=O)C[C@H]1[C@H](OC(=O)Cc2ccc3c(c2)OCO3)[C@@H](NC(=O)c2ccc3ccccc3c2)c2cc(OCCCO)ccc2N1C(=O)c1ccccc1 has composite z-score of 0.284

Per the record, O=C1O[C@H](c2ccccc2)[C@H](c2ccccc2)N2[C@H]1[C@@H](C(=O)N1CCN(c3ncccn3)CC1)[C@]1(C(=O)Nc3ccc(C#CC4=CCCCC4)cc31)[C@H]2c1ccc(O)cc1 has composite z-score of 0.768

Per the record, CCOC(=O)[C@H]1CC=C2CC1C(=O)N1CCC[C@@H]1[C@@H]2O[Si](C)(C)C(C)(C)C (some centres not stated) has composite z-score of -0.0337

Per the record, COCCOC(=O)N1C(=O)[C@@]2(c3cc(C#CCCO)ccc31)[C@H](C(=O)Nc1nc3ccccc3s1)[C@H]1C(=O)O[C@H](c3ccccc3)[C@H](c3ccccc3)N1[C@@H]2c1ccc(OCCO)cc1 has composite z-score of 0.871

Per the record, COCC(=C=CC[C@H](O)c1ccccc1OCCO)C[C@H](O)c1cc(Cl)cc(Cl)c1O has composite z-score of 0.999

Per the record, C=CCOC(=O)[C@H]1[C@@H]2C(=O)O[C@@H](c3ccccc3)[C@@H](c3ccccc3)N2[C@@H](c2ccc(OCCOC(=O)[C@@H]3C[C@@H]4C(=O)N5CCC[C@H]5C(=O)N4[C@@H]3c3cccc(OCCO)c3)cc2)[C@]12C(=O)Nc1ccccc12 has composite z-score of 0.808

Per the record, CC(=O)N1Cc2ccccc2C[C@@]2(COC(c3ccc(OCCCO)cc3)=N2)C1=O has composite z-score of 0.51

Per the record, C=CCOC(=O)[C@@H]1[C@H]2C(=O)O[C@H](c3ccccc3)[C@H](c3ccccc3)N2[C@H](c2ccc(OCCOC(=O)[C@@H]3C[C@@H]4C(=O)N[C@@H](CCCC[N+](C)(C)C)C(=O)N4[C@@H]3c3cccc(OCCO)c3)cc2)[C@@]12C(=O)Nc1ccc(I)cc12 has composite z-score of 0.291

Per the record, COc1ccc([Si](C)(C)[C@H]2[C@H](CCO)O[C@@]3(C(=O)N(Cc4ccc(N5C(=O)COc6ccccc65)cc4)c4ccccc43)[C@@H]2C)cc1 has composite z-score of -0.164

Per the record, COCCOC(=O)N1C(=O)[C@@]2(c3cc(C#Cc4ccc(OC)cc4)ccc31)[C@H](C(=O)N1CCCCCCC1)[C@H]1C(=O)O[C@H](c3ccccc3)[C@H](c3ccccc3)N1[C@@H]2c1ccc(OCCO)cc1 has composite z-score of 0.662

Per the record, COC(=O)[C@@]1(Cc2ccccc2)[C@H]2c3cc(C(=O)N4CCCC4)n(Cc4nc5ccccc5[nH]4)c3C[C@H]2CN1C(=O)c1ccccc1 has composite z-score of 0.115
